Molecular target: Beta-secretase 1 (Homo sapiens, UniProt P56817)
Sequence (P56817 whole entry): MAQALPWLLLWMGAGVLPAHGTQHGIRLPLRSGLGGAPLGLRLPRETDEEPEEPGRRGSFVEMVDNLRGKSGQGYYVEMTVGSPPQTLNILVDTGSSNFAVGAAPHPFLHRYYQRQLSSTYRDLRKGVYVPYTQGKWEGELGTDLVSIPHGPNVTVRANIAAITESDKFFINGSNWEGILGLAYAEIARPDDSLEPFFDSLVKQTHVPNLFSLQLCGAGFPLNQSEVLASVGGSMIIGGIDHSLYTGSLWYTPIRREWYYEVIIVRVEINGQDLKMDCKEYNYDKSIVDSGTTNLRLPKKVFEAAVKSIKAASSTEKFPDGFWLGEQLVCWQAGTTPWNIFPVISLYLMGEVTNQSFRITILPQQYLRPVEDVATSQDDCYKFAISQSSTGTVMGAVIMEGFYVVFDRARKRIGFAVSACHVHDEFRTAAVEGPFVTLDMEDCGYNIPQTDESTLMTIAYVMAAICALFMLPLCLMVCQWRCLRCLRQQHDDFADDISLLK
Experiment: Inhibition of BACE1 mediated human Swedish amyloid precursor protein peptide hydrolysis at 500 uM by HTRF assay
measureName: inhibition (%)
Note: unit % is implicit; provide only the numeric part.

Past entries and their recorded results:
CC1(C)NC(=N)N(Cc2cccc(Cl)c2)C1=O; 19
CC(C)CC1(C)NC(=N)N(Cc2cccc(Cl)c2)C1=O (centres undefined); 55
CC(C)CC1(C)C(=O)NC(=N)N1Cc1cccc(Cl)c1 (centres undefined); 6

Next:
Q) For the compound shown here, CCCCNC(=O)NCc1ccc(CN2C(=N)NC(C)(Cc3ccccc3)C2=O)cc1 (racemic) , give the reported inhibition.
A) 64
